Taken from patent US20100099673A1.

- Subject Of Test: human CB2 (Homo sapiens)
- Test Summary: Cyclic AMP assay (HTRF), CHO cells expressing human CB2
- Format: cell-based
Measure: pEC50
The quantity pEC50 is defined as the negative base-10 logarithm of the molar concentration.

// fetch human CB2 (Homo sapiens) pEC50 for O[C@]1(c2ccccc2)CCN(Cc2n[nH]c3ccccc23)[C@@H]2CCCC[C@@H]21 (stereo in doubt)
7.72

###

- Subject Of Test: human CB1 (Homo sapiens, UniProt P21554)
- Sequence (P21554 whole entry): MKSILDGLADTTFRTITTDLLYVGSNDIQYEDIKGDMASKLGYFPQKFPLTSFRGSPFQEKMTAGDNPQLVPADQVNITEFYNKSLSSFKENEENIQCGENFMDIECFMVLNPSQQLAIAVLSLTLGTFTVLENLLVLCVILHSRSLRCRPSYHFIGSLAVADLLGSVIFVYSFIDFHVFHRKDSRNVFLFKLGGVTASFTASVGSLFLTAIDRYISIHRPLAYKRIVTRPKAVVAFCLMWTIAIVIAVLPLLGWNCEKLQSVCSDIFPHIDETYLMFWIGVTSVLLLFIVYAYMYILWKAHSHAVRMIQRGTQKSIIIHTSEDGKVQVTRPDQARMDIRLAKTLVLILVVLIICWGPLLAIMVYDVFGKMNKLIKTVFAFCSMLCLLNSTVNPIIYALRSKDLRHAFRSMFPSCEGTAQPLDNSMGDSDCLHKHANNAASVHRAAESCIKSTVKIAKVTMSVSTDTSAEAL
- Test Summary: Cyclic AMP assay (HTRF), CHO cells expressing human CB1
- Type: cell-based
pEC50: −log10 of the molar value.
Measure: pEC50

Please report the recorded pEC50 for O[C@]1(c2ccccc2)CCN(Cc2n[nH]c3ccccc23)[C@@H]2CCCC[C@@H]21 (stereo in doubt) .
< 4.77

###

Provide the reported EC50 of each item.
- Subject Of Test: UniProtKB P21554
- Test Summary: Cyclic AMP assay (HTRF), CHO cells expressing human CB1
- Assay type: cell-based
- Test Parameters: IP of agonist in forskolin-stimulated cAMP HTRF assay, CHO cells expressing human CB1; read-out: CB1 (HTRF)
Write down the numeric answer in µM and omit the unit.

Please report the recorded EC50 for CC(C)(O)c1ccnc(N2CC[C@](O)(c3ccccc3)[C@H]3CCCC[C@H]32)c1 (relative stereo) [Example 287] .
10.5

Please report the recorded EC50 for O=C(c1cccnc1)N1CC[C@](O)(c2ccccc2)[C@H]2CCCC[C@H]21 (relative stereo) [Example 135] .
6.78

###

- Subject Of Test: human CB2 (Homo sapiens)
- Test Summary: Cyclic AMP assay (HTRF), CHO cells expressing human CB2
- Type: cell-based
- Test Parameters: IP of agonist in forskolin-stimulated cAMP HTRF assay, CHO cells expressing human CB2; read-out: CB2 (HTRF)
Provide the reported EC50 of each item.
The answer consists of two parts: a number and, after it, its unit.

Please report the recorded EC50 for O=C(c1cccnc1)N1CC[C@](O)(c2ccccc2)[C@H]2CCCC[C@H]21 (relative stereo) [Example 135] .
0.01 µM

Please report the recorded EC50 for CC(C)(O)c1ccnc(N2CC[C@](O)(c3ccccc3)[C@H]3CCCC[C@H]32)c1 (relative stereo) [Example 287] .
0.0013 µM

Please report the recorded EC50 for O=C(c1ccccc1)N1CCC(O)(c2cccnc2)[C@H]2CCCC[C@@H]21 (stereo in doubt) [Example 258] .
0.938 µM

Please report the recorded EC50 for O=C(c1ccccc1)N1CCC(O)(Cc2ccccc2)[C@H]2CCCC[C@@H]21 (stereo partly shown) [Example 260] .
0.09 µM

Please report the recorded EC50 for O=C(Nc1cccnc1)N1CC[C@](O)(c2ccccc2)[C@H]2CCCC[C@H]21 [Example 291] .
1.1 µM

Please report the recorded EC50 for O=C(c1ccon1)N1CC[C@](O)(c2ccccc2)[C@H]2CCCC[C@H]21 (single isomer, unassigned) [Example 131] .
0.037 µM

Please report the recorded EC50 for Cn1cc(S(=O)(=O)N2CC[C@](O)(c3ccccc3)[C@H]3CCCC[C@H]32)c(C(F)(F)F)n1 (stereo in doubt) [Example 289] .
0.041 µM

###

Provide the reported Emax of each item.
- Subject Of Test: human CB2 (Homo sapiens, UniProt P34972)
- Sequence (P34972 whole entry): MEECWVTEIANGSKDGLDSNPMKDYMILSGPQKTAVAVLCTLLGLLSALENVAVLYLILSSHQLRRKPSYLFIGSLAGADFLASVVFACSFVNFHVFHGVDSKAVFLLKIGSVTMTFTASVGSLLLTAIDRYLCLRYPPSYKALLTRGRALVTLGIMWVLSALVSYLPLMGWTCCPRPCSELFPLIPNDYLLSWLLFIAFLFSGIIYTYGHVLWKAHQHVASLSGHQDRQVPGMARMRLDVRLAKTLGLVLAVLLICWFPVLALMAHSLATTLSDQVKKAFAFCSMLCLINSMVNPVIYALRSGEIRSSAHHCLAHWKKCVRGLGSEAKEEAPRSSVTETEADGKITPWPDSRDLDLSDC
- Test Summary: Cyclic AMP assay (HTRF), CHO cells expressing human CB2
- Format: cell-based
- Test Parameters: forskolin-stimulated cAMP HTRF assay, CHO cells expressing human CB2; read-out: CB2 Emax
Write down the numeric answer in % and omit the unit.

Please report the recorded Emax for O=C(c1ccccc1)N1CCC(O)(c2cccnc2)[C@H]2CCCC[C@@H]21 (stereo in doubt) .
86

Please report the recorded Emax for O=C(c1cccnc1)N1CC[C@](O)(c2ccccc2)[C@H]2CCCC[C@H]21 (relative stereo) .
100

Please report the recorded Emax for Cn1cc(S(=O)(=O)N2CC[C@](O)(c3ccccc3)[C@H]3CCCC[C@H]32)c(C(F)(F)F)n1 (stereo in doubt) .
101

Please report the recorded Emax for O=C(c1ccccc1)N1CCC(O)(Cc2ccccc2)[C@H]2CCCC[C@@H]21 (stereo partly drawn) .
93

Please report the recorded Emax for O=C(c1ccon1)N1CC[C@](O)(c2ccccc2)[C@H]2CCCC[C@H]21 (single isomer, unassigned) .
100

Please report the recorded Emax for CC(C)(O)c1ccnc(N2CC[C@](O)(c3ccccc3)[C@H]3CCCC[C@H]32)c1 (relative stereo) .
99

###

Provide the reported pEC50 of each item.
- Subject Of Test: UniProt P21554
- Test Summary: Cyclic AMP assay (HTRF), CHO cells expressing human CB1
- Assay type: cell-based
- Test Parameters: IP of agonist in forskolin-stimulated cAMP HTRF assay, CHO cells expressing human CB1; read-out: CB1 (HTRF)
pEC50: −log10 of the molar value.

Please report the recorded pEC50 for O=C(c1ccon1)N1CC[C@](O)(c2ccccc2)[C@H]2CCCC[C@H]21 (single isomer, unassigned) .
< 4.77

Please report the recorded pEC50 for `O=C(Nc1cccnc1)N1CC[C@](O)(c2ccccc2)[C@H]2CCCC[C@H]21` .
< 4.77

Please report the recorded pEC50 for Cn1cc(S(=O)(=O)N2CC[C@](O)(c3ccccc3)[C@H]3CCCC[C@H]32)c(C(F)(F)F)n1 (stereo in doubt) .
< 4.77
